Values compiled from paper PMC8767159.

# Protocol Details: In vitro metabolic stability in mouse liver microsomes
# Assay type: in vitro ADME
# Measurement Setup: mouse, liver microsomes, Table S5, read-out: CLint (L/h/kg) Mouse (converted)
Is CLint scaled at 5 µM at least 500 L/h/kg? Then true (1). If not, false (0).

1) O=C(COc1ccc(NC(=O)CCCO)cc1)NCCc1nc2ccccc2[nH]1; false (0)
2) O=C(COc1ccccc1)NCCc1nc2ccccc2n1Cc1ccccc1; true (1)
3) O=C(COc1ccccc1)NCCc1nc2ccccc2n1CCOCc1ccccc1; true (1)
4) O=C(COc1ccccc1)NCCc1nc2ccccc2[nH]1; false (0)
5) O=C(COc1ccccc1)NCCc1nc2ccccc2n1-c1ccccc1; true (1)
6) O=C(COc1cccc([N+](=O)[O-])c1)NCCc1nc2ccccc2[nH]1; false (0)
7) O=C(COc1cccc(N2C(=O)CCC2=O)c1)NCCc1nc2ccccc2[nH]1; false (0)
8) O=C(Cn1ccnc1[N+](=O)[O-])NCc1ccccc1 [BZ, benznidazole, reference compound]; false (0)
9) CC(=O)Nc1cccc(OCC(=O)NCCc2nc3ccccc3[nH]2)c1; false (0)
10) O=C(COc1ccc2ccc(O)cc2c1)NCCc1nc2ccccc2[nH]1; false (0)
11) C=CCCn1c(CCNC(=O)COc2ccccc2)nc2ccccc21; true (1)

----------
# Target Desc: cruzain (Trypanosoma cruzi, UniProt P25779)
# Construct: made in house; host or cells: Escherichia coli (strain M15)
# Sequence (P25779 123-337 limits assumed): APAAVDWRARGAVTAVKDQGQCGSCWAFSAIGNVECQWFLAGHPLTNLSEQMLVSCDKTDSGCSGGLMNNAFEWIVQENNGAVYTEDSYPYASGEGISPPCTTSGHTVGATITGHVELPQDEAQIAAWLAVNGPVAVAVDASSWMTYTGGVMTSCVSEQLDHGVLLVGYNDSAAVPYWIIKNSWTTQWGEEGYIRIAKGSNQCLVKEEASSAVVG
# Protocol Details: Cruzain enzyme inhibition assay (cleavage of fluorogenic substrate Z-FR-AMC)
# Assay type: biochemical
# Measurement Setup: Table S1; 0.01% Triton X-100
Quantity Name: % cruzain inhibition, 0.01% Triton (%)

1) O=C(COc1ccccc1)NCCc1nc2ccccc2n1CCOc1ccccc1; 95.9
2) O=C(COc1ccccc1)NCCc1nc2ccccc2n1CCOc1ccccc1Br; 72.1
3) O=C(COc1ccccc1)NCCc1nc2ccccc2n1CCCOc1ccccc1; 82.6
4) O=C(COc1ccccc1)NCCc1nc2ccccc2n1CCOCc1ccccc1; 85.5
5) O=C(COc1ccccc1Br)NCCc1nc2ccccc2n1CCOc1ccccc1Br; 53.2

----------
# Protocol Details: In vivo pharmacokinetics in male CD1 mice
# Parameters: species or system mouse
# Measurement Setup: mouse, plasma; Table 6; IV 0.5 mg/kg, male CD1 mice
Is C0 at least 200 ng/mL? Then rule met. If not, rule not met.

1) O=C(CCc1ccccc1Br)NCCc1nc2ccccc2[nH]1; rule not met
2) Cc1ccccc1OCC(=O)NCCc1nc2ccccc2o1; rule not met
3) O=C(COc1ccccc1[N+](=O)[O-])NCCc1nc2ccccc2[nH]1; rule met
4) O=C(COc1ccc2ccccc2c1Br)NCCc1nc2ccccc2[nH]1; rule met
5) N#Cc1ccccc1OCC(=O)NCCc1nc2ccccc2[nH]1; rule met
6) O=C(COc1ccc(Br)cc1)NCCc1nc2ccccc2[nH]1; rule met
7) C=CCCn1c(CCNC(=O)COc2ccccc2Cl)nc2ccccc21; rule not met
8) O=C(COc1ccccc1Br)NCCc1nc2ccccc2[nH]1; rule met
9) O=C(COc1ccc2ccccc2c1)NCCc1nc2ccccc2[nH]1; rule met
10) Cc1ccccc1OCC(=O)NCCc1nc2ccccc2[nH]1; rule not met

----------
# Protocol Details: In vivo pharmacokinetics in male CD1 mice
# Design: species or system mouse
# Measurement Setup: mouse, plasma, 0.5 mg/kg; Table 6; oral bioavailability, male CD1 mice
Quantity Name: bioavailability

1. O=C(COc1ccccc1Br)NCCc1nc2ccccc2[nH]1 [Compound 18]; 1.2%
2. O=C(COc1ccccc1[N+](=O)[O-])NCCc1nc2ccccc2[nH]1 [Compound 32]; 1.9%
3. O=C(CCc1ccccc1Br)NCCc1nc2ccccc2[nH]1 [Compound 36]; 0%
4. O=C(COc1ccc2ccccc2c1)NCCc1nc2ccccc2[nH]1 [Compound 35]; 2%
5. Cc1ccccc1OCC(=O)NCCc1nc2ccccc2[nH]1 [Compound 17]; 0%
6. O=C(COc1ccc(Br)cc1)NCCc1nc2ccccc2[nH]1 [Compound 33]; 35.2%
7. O=C(COc1ccc2ccccc2c1Br)NCCc1nc2ccccc2[nH]1 [Compound 34]; 5.6%
